Below, each entry is listed alongside its reported combination Emax.
System: 786-0 (Kidney Carcinoma)
Test: combination Emax (second highest fraction inhibited in the dose matrix, 72 h); higher = more inhibition; extreme values may be limits of the assay
parameter-measured: combination Emax

molecule	val
CC1(C)CCC(CN2CCN(c3ccc(C(=O)NS(=O)(=O)c4ccc(NCC5CCOCC5)c([N+](=O)[O-])c4)c(Oc4cnc5[nH]ccc5c4)c3)CC2)=C(c2ccc(Cl)cc2)C1 [Venetoclax] + Cc1cc2ncnn2cc1Nc1ncc2c(n1)n(C1CCOCC1)c(=O)n2C [AZD7648] (first compound max 1 µM, 7x7, partner max 10 µM)	0.136
CN(CCO)CC[C@H](CSc1ccccc1)Nc1ccc(S(=O)(=O)NC(=O)c2ccc(N3CCC([C@@H](O)c4ccccc4-c4ccc(Cl)cc4)CC3)cc2)cc1S(=O)(=O)C(F)(F)F [AZD4320] + C[C@@H]1COCCN1C2=NC(=NC(=C2)C3(CC3)[S@](=N)(=O)C)C4=C5C=CNC5=NC=C4 [AZD6738] (first compound max 1 µM, 7x7, partner max 10 µM)	0.815
NC1(C(=O)N[C@@H](CCO)c2ccc(Cl)cc2)CCN(c2ncnc3[nH]ccc23)CC1 [Capivasertib] + CC(C)n1c(=O)n(C)c2cnc3cc(F)c(-c4ccc(OCCCN5CCCCC5)nc4)cc3c21 [AZD1390] (first compound max 10 µM, 7x7, partner max 0.3 µM)	0.489
Cn1cnc2c(F)c(Nc3ccc(Br)cc3Cl)c(C(=O)NOCCO)cc21 [Selumetinib] + C=CCn1c(=O)c2cnc(Nc3ccc(N4CCN(C)CC4)cc3)nc2n1-c1cccc(C(C)(C)O)n1 [AZD1775] (first compound max 10 µM, partner max 1 µM)	0.572
C=CCn1c(=O)c2cnc(Nc3ccc(N4CCN(C)CC4)cc3)nc2n1-c1cccc(C(C)(C)O)n1 [AZD1775] + C1CN(CCC1(C(=O)N[C@@H](CCO)C2=CC=C(C=C2)Cl)N)C3=NC=NC4=C3C=CN4 [Capivasertib] (first compound max 3 µM, partner max 3 µM)	0.817
CN(CCO)CC[C@H](CSc1ccccc1)Nc1ccc(S(=O)(=O)NC(=O)c2ccc(N3CCC([C@@H](O)c4ccccc4-c4ccc(Cl)cc4)CC3)cc2)cc1S(=O)(=O)C(F)(F)F [AZD4320] + Cc1cc2ncnn2cc1Nc1ncc2c(n1)n(C1CCOCC1)c(=O)n2C [AZD7648] (first compound max 1 µM, 7x7, partner max 10 µM)	0.138
C=CCn1c(=O)c2cnc(Nc3ccc(N4CCN(C)CC4)cc3)nc2n1-c1cccc(C(C)(C)O)n1 [AZD1775] + C[C@@H]1COCCN1C2=NC(=NC(=C2)C3(CC3)[S@](=N)(=O)C)C4=C5C=CNC5=NC=C4 [AZD6738] (first compound max 1 µM, partner max 10 µM)	0.888
